- testedOn: Tel-Alk (Homo sapiens, UniProt Q9UM73)
- Construct: TEL (ETV6); N-terminal fusion partner; human ETV6 would be P41212; the other entry of the earlier key: ETV6 (P41212, Transcription factor ETV6)
- Sequence (Q9UM73 1116-1392 limits assumed): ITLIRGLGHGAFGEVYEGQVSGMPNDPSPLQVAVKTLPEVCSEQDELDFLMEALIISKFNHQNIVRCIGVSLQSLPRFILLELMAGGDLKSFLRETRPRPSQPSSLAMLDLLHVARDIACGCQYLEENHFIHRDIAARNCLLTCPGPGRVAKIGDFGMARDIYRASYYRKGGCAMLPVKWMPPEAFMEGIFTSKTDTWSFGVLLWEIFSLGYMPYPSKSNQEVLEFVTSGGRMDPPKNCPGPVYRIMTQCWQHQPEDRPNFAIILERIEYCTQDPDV
- protocolDescription: IC50 of compounds against kinase target Tel-Alk (Table I)
quantityName: IC50

Record excerpt, results attached:
> print(dat)
                                   compound  quantityname  reportedmeasurement
1  CCOC(=O)c1cccc(-c2ccc3c(NC(=O)c4ccc(N5CCN(C)CC5)cc4)n[nH]c3c2)c1 [Compound 27]          IC50              5.26 µM
2  CNC(=O)c1cccc(-c2ccc3c(NC(=O)C4CC4)n[nH]c3c2)c1 [Compound 12]          IC50              0.72 µM
3  CCN1CCN(Cc2ccc(NC(=O)c3cccc(-c4ccc5c(NC)n[nH]c5c4)c3)cc2C(F)(F)F)CC1 [Compound 2]          IC50              4.48 µM
4  O=C(NC1CC1)c1cccc(-c2ccc3c(NC(=O)C4CC4)n[nH]c3c2)c1 [Compound 10]          IC50              > 10 µM
5  CONC(=O)c1cccc(-c2ccc3c(NC(=O)C4CC4)n[nH]c3c2)c1 [Compound 11]          IC50              > 10 µM
6  CCN1CCN(Cc2ccc(C(=O)Nc3cccc(-c4ccc5c(NC(=O)C6CC6)n[nH]c5c4)c3)cc2C(F)(F)F)CC1 [Compound 23]          IC50              > 10 µM
7  CNc1n[nH]c2cc(-c3cccc(C(=O)Nc4cc(-n5cnc(C)c5)cc(C(F)(F)F)c4)c3)ccc12 [Compound 18]          IC50              > 10 µM

Now consider a different compound.
**Q:** What IC50 value was documented for this compound, CCN1CCN(Cc2ccc(NC(=O)c3cccc(-c4ccc5c(N)n[nH]c5c4)c3)cc2C(F)(F)F)CC1 [Compound 17] ?
**A:** > 10 µM

---

- testedOn: Tel-Alk (Homo sapiens)
- Construct: TEL (ETV6); N-terminal fusion partner; human ETV6 would be P41212; the other entry of the earlier key: ETV6 (P41212, Transcription factor ETV6)
- protocolDescription: IC50 of compounds against kinase target Tel-Alk (Table I)
pIC50: −log10 of the molar value.
quantityName: pIC50

Record excerpt, results attached:
> print(dat)
                            structuresmiles  quantityname  reportedmeasurement
1  Cc1cn(-c2cc(NC(=O)c3ccc(C)c(-c4ccc5c(NC(=O)C6CC6)n[nH]c5c4)c3)cc(C(F)(F)F)c2)cn1         pIC50               < 5.00
2  CN1CCN(c2ccc(C(=O)Nc3n[nH]c4cc(-c5cccc(C(=O)Nc6cccc(C(F)(F)F)c6)c5)ccc34)cc2)CC1         pIC50               < 5.00
3  Cc1ccc(C(=O)Nc2cccc(C(F)(F)F)c2)cc1Nc1ccc2c(NC(=O)C3CC3)n[nH]c2c1         pIC50                 5.14

**Q:** What pIC50 value was documented for this compound, O=C(Nc1cccc(C(F)(F)F)c1)c1cccc(-c2ccc3c(NC(=O)C4CC4)n[nH]c3c2)c1 ?
**A:** < 5.00

**Q:** What pIC50 value was documented for this compound, O=C(Nc1n[nH]c2cc(-c3cccc(C(=O)N4CCC(N5CCCC5)CC4)c3)ccc12)C1CC1 ?
**A:** < 5.00

---

- testedOn: Bcr-Abl (Homo sapiens)
- Construct: BCR (N-terminal fusion partner, p210 form, B2A2 junction); the other entry of the earlier key: BCR (P11274, Breakpoint cluster region protein)
- Sequence (P00519 with tags, fused parts or gaps): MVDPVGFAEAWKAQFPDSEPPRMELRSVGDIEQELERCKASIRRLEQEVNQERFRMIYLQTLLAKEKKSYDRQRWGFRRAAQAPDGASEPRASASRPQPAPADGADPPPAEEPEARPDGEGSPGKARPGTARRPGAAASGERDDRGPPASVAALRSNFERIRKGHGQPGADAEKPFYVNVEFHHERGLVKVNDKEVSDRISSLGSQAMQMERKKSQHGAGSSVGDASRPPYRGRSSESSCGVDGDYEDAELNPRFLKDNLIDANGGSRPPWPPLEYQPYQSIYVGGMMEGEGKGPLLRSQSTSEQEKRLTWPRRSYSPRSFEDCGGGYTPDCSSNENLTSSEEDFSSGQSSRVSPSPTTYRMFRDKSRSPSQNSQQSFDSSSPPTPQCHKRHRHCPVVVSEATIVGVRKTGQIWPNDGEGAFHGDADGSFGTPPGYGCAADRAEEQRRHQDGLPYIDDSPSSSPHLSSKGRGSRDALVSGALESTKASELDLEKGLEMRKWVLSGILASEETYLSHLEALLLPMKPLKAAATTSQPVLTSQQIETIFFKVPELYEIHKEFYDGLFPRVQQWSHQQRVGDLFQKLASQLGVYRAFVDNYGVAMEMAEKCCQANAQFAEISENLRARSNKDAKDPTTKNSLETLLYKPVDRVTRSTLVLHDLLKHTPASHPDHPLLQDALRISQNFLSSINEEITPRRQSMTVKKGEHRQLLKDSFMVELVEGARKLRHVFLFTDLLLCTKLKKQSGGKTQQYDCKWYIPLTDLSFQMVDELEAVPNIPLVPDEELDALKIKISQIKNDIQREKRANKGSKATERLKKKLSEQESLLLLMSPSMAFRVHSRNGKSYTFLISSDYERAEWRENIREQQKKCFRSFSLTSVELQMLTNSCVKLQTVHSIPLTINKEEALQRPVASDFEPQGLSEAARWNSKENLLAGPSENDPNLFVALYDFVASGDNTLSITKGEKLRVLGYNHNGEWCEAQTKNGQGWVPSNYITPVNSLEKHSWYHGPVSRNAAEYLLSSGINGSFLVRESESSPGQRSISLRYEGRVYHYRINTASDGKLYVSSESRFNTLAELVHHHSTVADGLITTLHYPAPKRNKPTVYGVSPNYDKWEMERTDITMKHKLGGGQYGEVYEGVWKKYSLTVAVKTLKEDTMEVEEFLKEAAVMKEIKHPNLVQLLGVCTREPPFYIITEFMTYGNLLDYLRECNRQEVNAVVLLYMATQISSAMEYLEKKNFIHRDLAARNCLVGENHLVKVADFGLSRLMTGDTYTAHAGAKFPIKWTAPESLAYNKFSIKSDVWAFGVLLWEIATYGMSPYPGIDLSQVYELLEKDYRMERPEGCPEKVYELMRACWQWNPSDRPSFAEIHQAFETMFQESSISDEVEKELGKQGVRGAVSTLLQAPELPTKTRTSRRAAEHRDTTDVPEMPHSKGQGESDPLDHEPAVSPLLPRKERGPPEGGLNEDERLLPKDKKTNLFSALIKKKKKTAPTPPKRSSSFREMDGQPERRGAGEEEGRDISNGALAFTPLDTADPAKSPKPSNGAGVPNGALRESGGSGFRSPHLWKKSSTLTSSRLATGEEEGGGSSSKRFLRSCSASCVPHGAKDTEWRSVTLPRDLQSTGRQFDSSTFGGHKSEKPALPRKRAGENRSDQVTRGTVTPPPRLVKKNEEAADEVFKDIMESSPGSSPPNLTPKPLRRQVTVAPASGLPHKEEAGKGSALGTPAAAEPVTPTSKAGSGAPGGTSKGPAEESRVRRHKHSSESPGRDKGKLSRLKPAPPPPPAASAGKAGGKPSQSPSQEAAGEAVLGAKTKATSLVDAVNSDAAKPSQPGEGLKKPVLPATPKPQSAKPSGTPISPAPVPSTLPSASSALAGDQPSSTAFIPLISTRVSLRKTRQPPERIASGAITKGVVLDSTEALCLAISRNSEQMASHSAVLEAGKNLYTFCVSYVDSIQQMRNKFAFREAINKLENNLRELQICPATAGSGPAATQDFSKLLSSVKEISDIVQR
- protocolDescription: IC50 of compounds against kinase target Bcr-Abl (Table I)
quantityName: IC50 (nM)
The response must be a number in nM with no trailing unit.

Record excerpt, results attached:
> print(dat)
                            structuresmiles  quantityname  reportedmeasurement
1  CCN1CCN(Cc2ccc(NC(=O)c3ccc(C)c(-c4ccc5c(NC(=O)C6CC6)n[nH]c5c4)c3)cc2)CC1          IC50                 1050
2  CCN1CCN(Cc2ccc(NC(=O)c3cccc(-c4ccc5c(N)n[nH]c5c4)c3)cc2C(F)(F)F)CC1          IC50                  780

Now consider a different compound.
**Q:** What IC50 value was documented for this compound, CN1CCN(c2ccc(C(=O)Nc3n[nH]c4cc(-c5cccc(C(=O)Nc6cccc(C(F)(F)F)c6)c5)ccc34)cc2)CC1 ?
**A:** 1440
